tested on: Saccharomyces cerevisiae; experiment: Antifungal activity against Saccharomyces cerevisiae ADCDR1 expressing Candida albicans CDR1 efflux pump in YNPG-proline medium after 24 hrs by microdilution method; type: functional; settings: ADCDR1, 24 h
Non-standard residues stand in square brackets, D forms with d. Residues, ends and D or L forms follow the SMILES beside them. *: point of attachment. Phe(3-F) = N[C@@H](Cc1cccc(F)c1)C(=O)O; Ethyl(2-NH2) = NCC*
Quick reference for MIC among some compounds
The reply should be a number in µg/mL, with the unit left off.

COMPOUND | MIC, µg/mL
CCC[C@H](N)C(=O)N[C@@H](CNC(=O)/C=C/C(=O)OC)C(=O)O | 0.5
CC(C)C[C@H](NC(=O)[C@H](CC(C)C)NC(=O)[C@H](CC(C)C)NC(=O)[C@@H](N)COCCN)C(=O)NCC(=O)O (H-S(Ethyl(2-NH2))LLLG-OH) | 128
CCC[C@H](NC(=O)[C@@H](N)CCCCN)C(=O)N[C@@H](CNC(=O)/C=C/C(=O)OC)C(=O)O | 4

q: Enter recorded MIC with Saccharomyces cerevisiae for `CC(C)C[C@H](NC(=O)[C@@H](N)COCCN)C(=O)NCC(=O)O` here.
a: 1

q: Enter recorded MIC with Saccharomyces cerevisiae for CSCC[C@H](NC(=O)[C@@H](N)CCSC)C(=O)N[C@@H](Cc1cccc(F)c1)C(=O)O (H-Met-Met-[Phe(3-F)]-OH) here.
a: 32

q: Enter recorded MIC with Saccharomyces cerevisiae for OC(Cn1cncn1)(Cn1cncn1)c1ccc(F)cc1F [FLUCONAZOLE] here.
a: 32

q: Enter recorded MIC with Saccharomyces cerevisiae for CC(C)C[C@H](NC(=O)[C@H](CC(C)C)NC(=O)[C@@H](N)COCCN)C(=O)NCC(=O)O (H-S(Ethyl(2-NH2))LLG-OH) here.
a: 16

q: Enter recorded MIC with Saccharomyces cerevisiae for CC(C)C[C@H](N)C(=O)N[C@@H](Cc1cccc(F)c1)C(=O)O (H-Leu-[Phe(3-F)]-OH) here.
a: 8

q: Enter recorded MIC with Saccharomyces cerevisiae for C[C@@H]([C@H](N)C(=O)N[C@H](C(=O)O)[C@H]1O[C@@H](n2ccc(=O)[nH]c2=O)[C@H](O)[C@@H]1O)[C@H](O)c1ccc(O)cn1 [NIKKOMYCIN] here.
a: 16

This collection of values is drawn from ChEMBL document CHEMBL1649115.
